target: Rap guanine nucleotide exchange factor 3 (Homo sapiens); experiment: Confirmatory qHTS for antagonist of cAMP-regulated guanine nucleotide exchange factor 3 (EPAC1) (AID 1645880); conditions: EPAC1 Rap1B-BODIPY-GDP exchange, fluorescence; series mostly up to 115 µM; further: nearly all actives have a fitted effect of over 55% in size; further: potency means the concentration at half of the fitted maximal effect
Results filed as inconclusive are left out. The source made the active and inactive calls. The call rests on the fitted dose curve; in most records, active means well fitted inhibition curve with a large enough effect; inconclusive means small, poorly fitted or top-dose-only effect; inactive means no such curve, though single readings can be large or run the other way.
Value Kind: Potency

{"columns": ["Compound", "Obs Value"],
 "data": [
  ["O=C(CCCC(=O)Nc1cccnc1)Nc1cccnc1", "inactive"],
  ["O=C(Nc1cccc(Cl)c1)OC1CCCCc2cccnc21 (stereo not given)", "inactive"],
  ["COc1cccc(NC(=O)c2csc3c2CCCC3)c1", "inactive"],
  ["COc1ccc(C(=O)Nc2ccc(-c3cc4ccccc4oc3=O)c(C)c2)cc1Br", "inactive"],
  ["CS(=O)(=O)N1N=C(c2ccco2)CC1c1ccc(Cl)cc1Cl (stereo not given)", "inactive"]
]}

Measured Potency, `N#C/C(=C(/O)CCl)c1nc2c(s1)CCc1ccccc1-2` : 6.75 µM (active)

Measured Potency, `O=C(COc1ccccc1Cl)Nc1cccc(S(=O)(=O)NC2=NCCCCC2)c1` : inactive

###

Entries and their activity change, negative = inhibition values follow.
assay: qHTS Assay for Lipid Storage Modulators (AID 1519); conditions: Drosophila S3 cells, BODIPY lipid droplet/cell ratio, laser cytometry; at 25.7 µM (top of the series); cells loaded with oleic acid; further: on the % scale 0 is the no-effect control and ±100 the full control effect
Records with an inconclusive call do not appear.
Give the value in % but do not write % after it.

{"columns": ["Compound", "Value Kind", "Obs Value"],
 "data": [
  ["C#C[C@@]1(O)CC[C@@H]2[C@@H]3CCC4=C(CCC(=O)C4)[C@H]3CC[C@]21C", "activity change, negative = inhibition", -0.658],
  ["COc1ccc2nccc(C(=O)O)c2c1", "activity change, negative = inhibition", 2.98],
  ["O=C1C=CC(=O)c2c1ccc1c2ccc2ccccc21", "activity change, negative = inhibition", -0.997],
  ["O=C(OC[C@@H](O)CO)c1ccccc1Nc1ccnc2cc(Cl)ccc12", "activity change, negative = inhibition", -2.54],
  ["CC(=O)CC(=O)[C@@]1(O)CC[C@@H]2[C@@H]3C=C(C)C4=CC(=O)CC[C@@H]4[C@H]3CC[C@]21C", "activity change, negative = inhibition", -4.61],
  ["C[C@H](CCC(=O)O)[C@H]1CC[C@@H]2[C@@H]3[C@@H](O)C[C@H]4C[C@@H](O)CC[C@@]4(C)[C@H]3CC[C@@]21C", "activity change, negative = inhibition", -0.554],
  ["CC=C(/C(=C/C)c1ccc(O)cc1)c1ccc(O)cc1", "activity change, negative = inhibition", -3.26],
  ["C=Cc1c(C)c2cc3nc(cc4[nH]c(cc5nc(cc1[nH]2)C(C)=C5CCC(=O)O)c(CCC(=O)OC)c4C)[C@@]1(C)C3=CC=C(C(=O)OC)[C@H]1C(=O)OC (tested in a mixture with another compound)", "activity change, negative = inhibition", 1.23]
]}

Measured activity change, negative = inhibition, `COc1cc2cc3c4cc(OC)c(OC)cc4cc[n+]3c(C)c2cc1OC` : 0.187

Measured activity change, negative = inhibition, `CCC(=O)O[C@@]1(C(=O)CCl)[C@@H](C)C[C@@H]2[C@H]3CCC4=CC(=O)C=C[C@@]4(C)[C@]3(F)[C@@H](O)C[C@@]21C` : -3.93

Measured activity change, negative = inhibition, `O=C(O)[C@@H]1[C@@H]2C[C@H]3c4[nH]c5ccccc5c4CCN3C[C@@H]2CC[C@@H]1O` : 0.95

Measured activity change, negative = inhibition, `CC(=O)Nc1cc2ccccc2oc1=O` : 2.36

Measured activity change, negative = inhibition, `CC(C)(C)CC(C)(C)c1ccc(OCOCCOCCO)c(Cc2cc(C(C)(C)CC(C)(C)C)cc(Cc3cc(C(C)(C)CC(C)(C)C)ccc3OCOCCOCCO)c2OCOCCOCCO)c1` : -6.93

Measured activity change, negative = inhibition, `CC(C)(C)NC(=O)[C@@H]1C[C@H]2CCCC[C@@H]2CN1C[C@H](O)[C@H](Cc1ccccc1)NC(=O)[C@@H](CC(N)=O)NC(=O)c1ccc2ccccc2n1` : -0.923

Measured activity change, negative = inhibition, `CCC(=O)O[C@@]1(C(=O)SCF)[C@@H](C)C[C@H]2[C@@H]3C[C@@H](F)C4=CC(=O)C=C[C@@]4(C)[C@]3(F)[C@@H](O)C[C@]21C` : 1.23

Measured activity change, negative = inhibition, `Nc1ccn([C@@H]2CC[C@H](CO)O2)c(=O)n1` : -3.47

Measured activity change, negative = inhibition, `Cn1c(-c2ccc3c(c2)OCO3)cc(=O)c2ccccc21` : 2.22

Measured activity change, negative = inhibition, `CC[C@H](Cc1c(I)cc(I)c(N)c1I)C(=O)O` : 0.772

###

biological target: Glucocorticoid receptor (Homo sapiens) (UniProt P04150); test: GR-GFP Redistribution (AID 450); conditions: U2OS GR-GFP nuclear translocation, laser cytometry, 2 h; further: potency means the concentration at half of the fitted maximal effect
Sequence (P04150 whole entry, looked up): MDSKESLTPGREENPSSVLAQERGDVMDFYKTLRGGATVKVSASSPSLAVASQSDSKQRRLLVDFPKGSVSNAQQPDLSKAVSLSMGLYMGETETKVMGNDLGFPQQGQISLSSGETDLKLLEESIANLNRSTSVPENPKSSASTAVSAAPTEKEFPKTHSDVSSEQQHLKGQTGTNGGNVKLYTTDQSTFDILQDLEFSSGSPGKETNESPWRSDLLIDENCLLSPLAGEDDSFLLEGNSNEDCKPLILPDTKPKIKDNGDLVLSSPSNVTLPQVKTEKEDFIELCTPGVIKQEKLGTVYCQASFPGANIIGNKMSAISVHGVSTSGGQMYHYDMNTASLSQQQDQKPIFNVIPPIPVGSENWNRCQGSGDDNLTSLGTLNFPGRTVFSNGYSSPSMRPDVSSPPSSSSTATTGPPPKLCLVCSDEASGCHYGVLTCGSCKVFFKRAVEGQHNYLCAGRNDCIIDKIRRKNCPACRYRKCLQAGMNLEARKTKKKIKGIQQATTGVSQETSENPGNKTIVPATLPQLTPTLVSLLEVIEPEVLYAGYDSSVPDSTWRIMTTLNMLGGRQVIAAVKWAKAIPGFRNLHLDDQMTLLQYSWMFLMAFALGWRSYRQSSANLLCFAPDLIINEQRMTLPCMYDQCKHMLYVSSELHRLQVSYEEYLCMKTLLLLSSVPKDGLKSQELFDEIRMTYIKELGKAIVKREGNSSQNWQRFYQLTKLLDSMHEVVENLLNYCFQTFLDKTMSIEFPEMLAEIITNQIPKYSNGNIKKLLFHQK
The source made the active and inactive calls.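 The calls were made as follows: active = compounds whose dose series gives a full or clear partial fitted curve of increased nuclear translocation; inconclusive = weak partial curve or effect only at the top dose; inactive = no dose-dependent translocation response.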
A correct response names exactly one class from active, inactive

{"columns": ["Smiles Structure", "Category"],
 "data": [
  ["CCOC(=O)[C@H](CCc1ccccc1)N[C@@H](C)C(=O)N1[C@H](C(=O)O)C[C@H]2CCC[C@@H]21", "inactive"]
]}

Inquiry: Called result for `CC(=O)[C@@]1(O)CC[C@H]2[C@H]3C[C@@H](C)C4=CC(=O)C=C[C@]4(C)[C@@]3(F)[C@@H](O)C[C@]21C`
Reply text: active

Inquiry: Called result for `N[C@H](Cc1cc(I)c(Oc2cc(I)c(O)c(I)c2)c(I)c1)C(=O)O`
Reply text: inactive

Inquiry: Called result for `Cn1c(-c2ccc3c(c2)OCO3)cc(=O)c2ccccc21`
Reply text: inactive

Inquiry: Called result for `OC[C@@H](O)CN1CCN(c2ccccc2)CC1`
Reply text: inactive

Inquiry: Called result for `COC(=O)[C@@H]1[C@@H]2C[C@H]3c4[nH]c5cc(OC)ccc5c4CCN3C[C@@H]2C[C@H](OC(=O)/C=C\c2cc(OC)c(OC)c(OC)c2)[C@H]1OC`
Reply text: inactive

Inquiry: Called result for `C=C(C)[C@H]1CC[C@]2(CO)CC[C@]3(C)[C@@H](CC[C@H]4[C@@]5(C)CC[C@@H](O)C(C)(C)[C@@H]5CC[C@@]43C)[C@H]12`
Reply text: inactive

Inquiry: Called result for `CC(C)(C)NC[C@H](O)COc1cccc2c1CCC(=O)N2`
Reply text: inactive

Inquiry: Called result for `Cc1cn([C@@H]2C[C@H](N=[N+]=N)[C@H](CO)O2)c(=O)[nH]c1=O`
Reply text: inactive

###

biological target: Catechol O-methyltransferase (Homo sapiens); assay: Confirmatory Screen for Target Class Profiling of Small Molecule Inhibitors of Methyltransferases (AID 1745852); conditions: MTase-Glo luminescence, SAH detection, recombinant enzyme; measured here: COMT max response; stronger effect = lower value
Entries and their activity values follow.
Give the value in % but do not write % after it.

Worked cases, activity given:
{"columns": ["Smiles Structure", "Readout Unit", "activity"],
 "data": [
  ["Nc1nc(Nc2ccc3c(c2)CC[C@@H](N2CCCC2)CC3)nn1-c1cc2c(nn1)-c1ccccc1CCC2", "%", -19.2],
  ["COc1cc2c(NC3CCN(C)CC3)nc(N3CCCN(C)CC3)nc2cc1OCCCN(C)C", "%", 3.04],
  ["Oc1cccc(Nc2ccnc3[nH]c4ccccc4c23)c1", "%", -17.6]
]}

Okay, next one:
Measured activity, `CCCS(=O)(=O)c1nc(NC2CC2)cc(-c2ccc3c(ccn3C3CC(C)(C)NC(C)(C)C3)c2)n1` : -4.11

###

Molecular target: Rap guanine nucleotide exchange factor 3 (Homo sapiens) (UniProt O95398)
Sequence (O95398 whole entry, looked up): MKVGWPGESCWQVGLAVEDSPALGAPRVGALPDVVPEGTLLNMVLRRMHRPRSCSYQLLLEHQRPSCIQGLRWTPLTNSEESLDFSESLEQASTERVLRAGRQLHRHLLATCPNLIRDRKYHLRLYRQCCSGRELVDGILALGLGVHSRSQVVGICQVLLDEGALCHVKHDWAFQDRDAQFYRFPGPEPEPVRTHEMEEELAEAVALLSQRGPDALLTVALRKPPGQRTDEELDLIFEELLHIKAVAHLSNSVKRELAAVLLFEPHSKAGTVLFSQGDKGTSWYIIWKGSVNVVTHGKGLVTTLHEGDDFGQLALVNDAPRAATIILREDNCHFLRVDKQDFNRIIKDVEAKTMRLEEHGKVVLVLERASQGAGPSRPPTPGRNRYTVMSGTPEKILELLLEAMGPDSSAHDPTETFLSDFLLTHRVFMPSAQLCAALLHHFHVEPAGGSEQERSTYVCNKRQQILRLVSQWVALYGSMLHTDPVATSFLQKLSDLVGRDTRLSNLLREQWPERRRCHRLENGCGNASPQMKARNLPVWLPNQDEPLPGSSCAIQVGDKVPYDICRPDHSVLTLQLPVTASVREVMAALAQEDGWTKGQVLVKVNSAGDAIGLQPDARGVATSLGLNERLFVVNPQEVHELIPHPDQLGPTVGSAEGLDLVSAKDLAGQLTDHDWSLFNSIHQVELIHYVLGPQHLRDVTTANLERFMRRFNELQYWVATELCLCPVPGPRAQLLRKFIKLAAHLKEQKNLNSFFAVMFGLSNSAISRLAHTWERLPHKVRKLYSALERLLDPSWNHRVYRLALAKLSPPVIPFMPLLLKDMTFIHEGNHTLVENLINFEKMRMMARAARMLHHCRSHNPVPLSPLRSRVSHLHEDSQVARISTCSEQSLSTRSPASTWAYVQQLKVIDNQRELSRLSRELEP
Assay: Counterscreen qHTS for antagonist of cAMP-regulated guanine nucleotide exchange factor 3 (EPAC1) (AID 1645888);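 further: fluorescence loss as bound BODIPY-GDP is released from Rap1B; % of control where 0% means no effect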
Conditions: Rap1B-BODIPY-GDP nucleotide exchange, fluorescence; series mostly up to 154 µM
Description: Assay Provider (PI): Xiaodong Cheng Ph.D. The University of Texas Medical Branch, […], TX MLPCN Grant: NS066510 In multi-cellular eukaryotic organisms, the effects of cAMP are transduced by two ubiquitously-expressed intracellular cAMP receptors, the classic protein kinase A/cAMP-dependent protein kinase (PKA/cAPK) and the more recently discovered exchange protein directly activated by cAMP/cAMP-regulated guanine nucleotide exchange factor (EPAC/cAMP-GEF). […]
Inconclusive results are not listed. Active and inactive are the calls of the source. Calls come from the whole dose curve; as a rule, active = well fitted inhibition curve with a large enough effect; inconclusive = small, poorly fitted or top-dose-only effect; inactive = no such curve, though single readings can be large or run the other way.
Value Kind: activity change, negative = inhibition

{"columns": ["Compound", "activity change, negative = inhibition"],
 "data": [
  ["O=C1C(c2ccccc2)=[N+]([O-])c2ccccc21", "inactive"],
  ["COc1ccc(S(=O)(=O)Nc2ccc(OCC(=O)O)cc2)c2ccccc12", "inactive"],
  ["COC(=O)c1ccc(/C=C2\\CCn3c2nc2cc(C(=O)O)ccc2c3=O)cc1", "inactive"],
  ["Cc1ccc(-c2csc(NC(=O)/C=C/c3ccco3)c2C(=O)O)cc1", "-12.5% [at 30.8 µM] (inactive)"],
  ["O=C(Cn1cnc2scc(-c3cccc([N+](=O)[O-])c3)c2c1=O)NCc1ccco1", "inactive"]
]}

Measured activity change, negative = inhibition, `COCCNC(=O)c1ccc2c(c1)N(Cc1ccc(C(F)(F)F)cc1)C(=O)c1ccccc1S2` : inactive

Measured activity change, negative = inhibition, `C=CCc1c(C)c(C#N)c2nc3ccccc3n2c1N1CCCCC1` : inactive

Measured activity change, negative = inhibition, `O=C(c1ccccc1[N+](=O)[O-])N1CCN(c2ccc(N3CCOCC3)nn2)CC1` : inactive

Measured activity change, negative = inhibition, `COc1ccc(C=NNc2ccc(S(=O)(=O)Nc3ccccc3C(=O)O)cc2[N+](=O)[O-])c(OC)c1` : inactive

Measured activity change, negative = inhibition, CCCc1[nH]nc2c1C(c1cccnc1)C(C#N)=C(N)O2 (configuration not stated) : -9.67% [at 30.8 µM] (inactive)

Measured activity change, negative = inhibition, `COc1ccc(N2CCN(C(=O)COC(=O)c3ccc(C)o3)CC2)cc1` : -20% [at 30.8 µM] (inactive)

Measured activity change, negative = inhibition, `O=C(COc1ccccc1Cl)Nc1cccc(S(=O)(=O)NC2=NCCCCC2)c1` : inactive

Measured activity change, negative = inhibition, C=CCOc1ccc(/C=C2\SC(=S)N(C(C(=O)O)c3ccccc3)C2=O)cc1 (configuration not stated) : -23.9% [at 30.8 µM] (inactive)

Measured activity change, negative = inhibition, `COc1cc2c(C#N)c(N3CCCC3)nc(N)c2c(N)n1` : inactive

Measured activity change, negative = inhibition, `CN1CCN(S(=O)(=O)c2ccc(Nc3ccc(F)cc3)nc2)CC1` : -5.53% [at 30.8 µM] (inactive)

Measured activity change, negative = inhibition, `COC1=NC(=C(c2ccccc2)c2ccccc2)OC1=O` : inactive
